Tested on: mPer2Luc MEF
Assay: PER2::LUC luminescence relative to vehicle control (fold of vehicle); higher = higher PER2::LUC reporter signal
Settings: time after treatment 30 h; 10 µM
In all, about 5,300 compounds were measured (“PER2::LUC luminescence relative to vehicle control”: median about 0.96, highest 2% from about 1.3 on). The entries come from a sample that favours the highest values as a whole.
Quantity: PER2::LUC luminescence
I only need the number, thanks.

Per the record, COc1ccc(C(=O)/C=C/c2ccccc2)cc1 has PER2::LUC luminescence of 1.28

Kindly note the recorded PER2::LUC luminescence for COc1ccc(/C=C/C(=O)c2ccc(O)cc2O)cc1 , which is 1.56

For reference, reported PER2::LUC luminescence for COc1ccc(C(=O)c2ccccc2O)c(O)c1 stands at 1.04

So for COc1ccc(C(=O)c2ccccc2)c(O)c1 , the logged PER2::LUC luminescence turned out to be 1.21

Documented PER2::LUC luminescence of O=C(/C=C/c1ccccc1)c1ccc(O)cc1 : 1.48

What the record says about O=C1c2ccccc2C(=O)c2oc(-c3ccccc3)nc21 : PER2::LUC luminescence is 0.538

The measured PER2::LUC luminescence associated with O=c1[nH]c(C2CCCN2)nc2c1oc1ccc(Cl)cc12 (configuration not stated) reads 1.29

PER2::LUC luminescence for COc1ccc([C@@H](C)C(=O)c2ccc(O)cc2O)cc1 is 1.08

The recorded PER2::LUC luminescence for entry COc1c(O)c2c(=O)cc(OC)c3c4c(OC)cc(=O)c5c(O)c(OC)c6c(c(c1CC(C)=C6C(C)=O)c23)c54 equals 0.948

# PER2::LUC luminescence (compound: O=C(/C=C/c1ccc(O)cc1)CC(=O)/C=C/c1ccc(O)cc1 ) is 1.07

Kindly note the recorded PER2::LUC luminescence for COc1ccc(C(C)=O)c(O)c1 , which is 0.936

Just so you know, measured PER2::LUC luminescence for COc1ccc(/C=C/C(=O)c2cc(O)ccc2O)cc1 came out at 0.827

----------
System: mPer2Luc MEF
Assay: PER2::LUC luminescence relative to vehicle control (fold of vehicle); higher = higher PER2::LUC reporter signal
Settings: time after treatment 30 h; 10 µM
The full ranking holds about 5,300 compounds; the median of “PER2::LUC luminescence relative to vehicle control” is about 0.96, and the highest 2% start at about 1.3. This excerpt belongs to a sample that is enriched for the highest values.
// label = t if PER2::LUC luminescence is not less than 0.9, otherwise f

Is PER2::LUC luminescence for O=C(O[C@H]1[C@H](Oc2ccccc2COC(=O)C2(O)C=CCCC2=O)O[C@H](CO)[C@@H](O)[C@@H]1O)c1ccccc1 (stereo partly specified) at or above 0.9?
f

Does CC(=O)c1ccc2c(c1)C1C=CCC1C(c1cc3c(cc1Br)OCO3)N2 (stereo unspecified) have a reported PER2::LUC luminescence of at least 0.9?
t

Tell me whether PER2::LUC luminescence is at least 0.9 here: N[C@@H](CCS(=O)O)C(=O)O
t

Has c1ccc(-c2ccc(C(c3ccccc3)n3ccnc3)cc2)cc1 (stereo unspecified) a recorded PER2::LUC luminescence greater than or equal to 0.9?
t

Answer whether PER2::LUC luminescence of CC(C(=O)O[C@]12CCC[C@H](CC1)N2C)c1ccc(Br)cc1 (stereo partly specified) is greater than or equal to 0.9.
t

Would you say CCNCCNC(=O)c1c(C)[nH]c(/C=C2\C(=O)Nc3ccc(F)cc32)c1C shows PER2::LUC luminescence at minimum 0.9?
f

----------
Test system: mPer2Luc MEF
Assay: PER2::LUC luminescence relative to vehicle control (fold of vehicle); higher = higher PER2::LUC reporter signal
Details: time after treatment 30 h; 10 µM
The full ranking holds about 5,300 compounds; the median of “PER2::LUC luminescence relative to vehicle control” is about 0.96, and the highest 2% start at about 1.3. What follows is part of a selection rich in the highest values, with near analogues and random picks from the rest.
Consider the following molecules; for each one, report its PER2::LUC luminescence.

The reported value for N=C(N/N=C/c1ccc(Cl)cc1)N/N=C/c1ccc(Cl)cc1 in terms of PER2::LUC luminescence is 0.988

The molecule listed as CC1(C)CC(NC(=O)C(=O)Nc2ccc(Br)cc2)CC(C)(C)N1 has a reported PER2::LUC luminescence of 0.928

Recorded PER2::LUC luminescence (molecule CCCNC(C)(C)COC(=O)c1ccccc1 ): 0.968

Input COc1cc(-c2coc3cc(OC)c(OC)c(OC)c3c2=O)cc(OC)c1OC . Output PER2::LUC luminescence: 0.969

Documented PER2::LUC luminescence of Cc1cc2nc3c(=O)[nH]c(=O)nc-3n(C[C@H](O)[C@H](O)[C@H](O)COP(=O)(O)O)c2cc1C : 0.887

In plain terms, Cc1ccc(O)cc1Nc1ccnc(Nc2cccc(C(N)=O)c2)n1 has a documented PER2::LUC luminescence of 1.02

Recorded result, COc1ccc(-c2coc3cc(O)cc(O)c3c2=O)cc1 , PER2::LUC luminescence: 1.97

Please fill in: PER2::LUC luminescence reported for O=C(Nc1ccc(Cl)cc1CN1C(=O)c2ccccc2C1=O)c1ccccc1O = 1.02

The measured PER2::LUC luminescence associated with COc1cc(-c2coc3cc(O)c(OC)c(O)c3c2=O)cc(O)c1OC reads 1.39

Consider CNc1ncnc2c1ncn2[C@@H]1O[C@H](CO)[C@@H](O)[C@H]1O . Its measured PER2::LUC luminescence is 1.04

The reported value for CCCCc1ccc(NC(C)=O)c(C)c1 in terms of PER2::LUC luminescence is 1.05

Please fill in: PER2::LUC luminescence reported for CC(C)CCC[C@@H](C)[C@H]1CC[C@H]2[C@@H]3CC=C4C[C@@H](O)CC[C@]4(C)[C@H]3CC[C@]12C = 0.923

get_value(item= Nc1ccc(S(=O)(=O)NCCc2ccccc2)cc1 , readout=PER2::LUC luminescence) returns 1

Lab note: OC[C@H]1O[C@@H](n2cnc3c(N[C@H]4CCC[C@@H]4O)ncnc32)[C@@H](O)C1O (stereo partly drawn) gave PER2::LUC luminescence of 0.88

What the record says about CCCCNc1cc(C(=O)O)cc(S(N)(=O)=O)c1Oc1ccccc1 : PER2::LUC luminescence is 1.86

In plain terms, O=C(Nc1cccc(C(F)(F)F)c1)Nc1cc(Cl)ccc1C(=O)O has a documented PER2::LUC luminescence of 1

Noted for CC(C)C[C@H](N)C(=O)N[C@H](C(=O)N[C@H](C(=O)N[C@@H](Cc1ccc(O)cc1)C(=O)N1CCC[C@H]1C(=O)N[C@@H](Cc1c[nH]c2ccccc12)C(=O)N[C@H](C(=O)N[C@@H](CCC(N)=O)C(=O)N[C@@H](CCCN=C(N)N)C(=O)O)[C@@H](C)O)C(C)C)C(C)C : its PER2::LUC luminescence reads 0.916

Briefly, PER2::LUC luminescence measured for COCc1c(C(C)C)nc(C(C)C)c(/C=C/[C@@H](O)C[C@@H](O)CC(=O)O)c1-c1ccc(F)cc1 : 0.274

Lookup result for Cc1o[nH]c(=O)c1CCC(N)C(=O)O (stereo not drawn) ; measured PER2::LUC luminescence: 0.829

For record CCc1c(C(=O)NNC(=O)C(O)c2cc(F)cc(F)c2)ccc(O)c1C (stereo not drawn) the listed PER2::LUC luminescence is 0.823

For COc1ccc(-c2coc3c(O)c(O)c(OC)cc3c2=O)cc1 the molecule record lists PER2::LUC luminescence as 1.23

Please fill in: PER2::LUC luminescence reported for Cc1onc(-c2ccccc2)c1C(=O)N1CCN(c2ccc([N+](=O)[O-])cc2Cl)CC1 = 1.04

Lookup result for CCCCOC(=O)OCCCC ; measured PER2::LUC luminescence: 1.02

Value of measured PER2::LUC luminescence for the entry COc1cc(C)c(/C=C/C(C)=C/C=C/C(C)=C/C(=O)O)c(C)c1C : 2.04

// PER2::LUC luminescence value for COc1ccc(-c2coc3cc(O)ccc3c2=O)cc1S(=O)(=O)O : 0.898

Form field PER2::LUC luminescence, entry C[C@@H]1O[C@@H](OC[C@H]2O[C@@H](OCCc3ccc(O)c(O)c3)[C@H](O)[C@@H](O[C@@H]3O[C@@H](C)[C@H](O)[C@@H](O)[C@H]3O)[C@@H]2OC(=O)/C=C/c2ccc(O)c(O)c2)[C@H](O)[C@H](O)[C@H]1O : 0.982

Quick note, PER2::LUC luminescence for CC(C)(Cc1nc(-c2ccc(O)cn2)no1)C(=O)NC1=C(C(=O)O)CCCC1 landed at 1.08

Entry CC1=CC[C@@]2(C)CC[C@@](O)(C(C)C)[C@@H]2[C@@H](OC(=O)c2ccc(O)cc2)C1 — recorded PER2::LUC luminescence = 1.15

Briefly, PER2::LUC luminescence measured for COc1cc(-c2coc3cc(O[C@@H]4O[C@H](CO)[C@@H](O)[C@H](O)[C@H]4O)c(OC)c(O)c3c2=O)cc(O)c1OC : 1.31

Recorded PER2::LUC luminescence (molecule FC(F)(F)COB(OCC(F)(F)F)OCC(F)(F)F ): 1

Lab book: PER2::LUC luminescence of COc1ccc([C@@H]2CC(=O)c3c(O)cc(OC4O[C@H](CO[C@H]5O[C@@H](C)[C@@H](O)[C@@H](O)[C@H]5O)[C@H](O)[C@H](O)[C@H]4O)cc3O2)cc1O (stereo partly drawn) noted as 1.03

// recorded PER2::LUC luminescence for COc1cc(/C=C/c2ccc(O)cc2)cc(OC)c1 : 0.93

What the record says about Nc1ccc(CCNc2ncnc3c2ncn3C2OC(CO)C(O)C2O)cc1 (stereo not drawn) : PER2::LUC luminescence is 0.857

Per the record, Cc1ncc([N+](=O)[O-])n1C has PER2::LUC luminescence of 0.998

Lab note: NC(=O)c1cccc(NC(=O)/C=C/c2c[nH]c3ccccc23)c1 gave PER2::LUC luminescence of 1.06

The recorded PER2::LUC luminescence for entry OCC12COC(c3ccc(F)cc3)N1C(c1ccc(F)cc1)OC2 (stereo not drawn) equals 1.03

response.value for Cc1ccccc1CNc1ncnc2c1ncn2[C@@H]1O[C@H](CO)[C@@H](O)[C@H]1O (field: PER2::LUC luminescence) = 1.28

Noted for COc1cc(/C=C/C(=O)O)cc(OC)c1OC : its PER2::LUC luminescence reads 0.955

Value source: the supplement of paper PMC9334596
